assay: self-splicing fitness, log relative to wild type (ln ratio); higher = more splicing; Tetrahymena group I intron in knt gene, E. coli kanamycin selection, DiMSum; sequences stand for … in CUCUCU…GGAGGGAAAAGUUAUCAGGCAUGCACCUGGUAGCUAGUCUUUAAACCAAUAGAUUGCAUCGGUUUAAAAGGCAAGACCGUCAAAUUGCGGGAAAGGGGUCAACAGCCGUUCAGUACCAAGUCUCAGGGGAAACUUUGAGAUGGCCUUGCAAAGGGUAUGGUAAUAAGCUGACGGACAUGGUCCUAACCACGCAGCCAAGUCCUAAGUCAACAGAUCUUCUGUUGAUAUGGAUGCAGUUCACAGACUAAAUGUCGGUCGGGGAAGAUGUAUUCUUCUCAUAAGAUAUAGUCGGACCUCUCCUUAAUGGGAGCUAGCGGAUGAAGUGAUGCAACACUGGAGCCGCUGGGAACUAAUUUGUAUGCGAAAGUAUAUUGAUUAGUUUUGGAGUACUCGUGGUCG; conditions: 30 °C;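 note: selection with 25 µg/mL kanamycin versus none on LB agar overnight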
Answer n if self-splicing fitness (ln) is under -2, and y if it is -2 or more.

sequence_content=GUCAAGCAAUAUUACGGCAU class_label=y
sequence_content=CCCCAGCAAUAUUACGCGAA class_label=n
sequence_content=UAGAAGCAAUAUUACGCUUA class_label=y
sequence_content=CAUAAGCAAUAUUACGCUUA class_label=n
sequence_content=AUCUAGCAAUAUUACGUCCG class_label=y
sequence_content=CUUGAGCAAUAUUACGAUGU class_label=n
sequence_content=AUAAAGCAAUAUUACGGAAA class_label=y
sequence_content=CACAAGCAAUAUUACGGCUG class_label=y
